Attribution: PubChem BioAssay (NCI)

GI50 listing for selected compounds.
System: NCI/ADR-RES ovarian
Test: NCI tumour cell line growth inhibition, 48 h
OBSERVATION_TYPE: GI50

compound=COc1ccc2nc(C)cc(Sc3nc4ccccc4s3)c2c1 system_under_test="NCI/ADR-RES ovarian" experimental_value="1.43 µM"
compound=Cc1ccc(S(=O)(=O)n2cc([C@@]3(O)C[C@H](CSC#N)OC3=O)c3ccccc32)cc1 system_under_test="NCI/ADR-RES ovarian" experimental_value="13.5 µM"
compound=CN1CCN(CCCOc2ccc3nc(Nc4ccc(F)c(F)c4)ccc3c2)CC1 system_under_test="NCI/ADR-RES ovarian" experimental_value="3.4 µM"
compound=CN1CCN(Cc2ccc(NC(=O)c3[nH]ncc3Nc3ncnc4[nH]ccc34)cc2)CC1 system_under_test="NCI/ADR-RES ovarian" experimental_value="7.16 µM"
compound="CCCCC#Cc1c(I)n(C2OC(CO[Si](C)(C)C(C)(C)C)C3OC(C)(C)OC32)c(=O)n(C(=O)c2ccccc2)c1=O (stereo not given)" system_under_test="NCI/ADR-RES ovarian" experimental_value="18.5 µM"

* * *

System: SN12C renal
Test: NCI tumour cell line growth inhibition, 48 h
OBSERVATION_TYPE: TGI

compound="CC(c1ccccc1)n1cncc1C(=O)NN1CCN(C)CC1 (stereo not drawn)" observation_type=TGI experimental_value="> 10 µM"
compound="CC(OP(=O)(O)O)C(N)C(=O)O (stereo not drawn)" observation_type=TGI experimental_value="> 100 µM"
compound=Cc1ccc(S(=O)(=O)n2cc([C@@]3(O)C[C@H](CSC#N)OC3=O)c3ccccc32)cc1 observation_type=TGI experimental_value="24.9 µM"
compound=O=c1cc[nH]cc1-c1c[nH]ccc1=O observation_type=TGI experimental_value="> 100 µM"
compound="CCCCC#Cc1c(I)n(C2OC(CO[Si](C)(C)C(C)(C)C)C3OC(C)(C)OC32)c(=O)n(C(=O)c2ccccc2)c1=O (stereo not drawn)" observation_type=TGI experimental_value="45.4 µM"
compound=O=c1[nH]n(CCc2ccccc2CCl)c2ccc([N+](=O)[O-])cc12 observation_type=TGI experimental_value="> 100 µM"
compound=O=C1N2CCC[C@H]2CS1(=O)=O observation_type=TGI experimental_value="29.1 µM"
compound="O=C1CC(c2ccsc2)n2cccc21 (stereo not drawn)" observation_type=TGI experimental_value="> 100 µM"
compound=Cc1ccccc1-n1c(=S)[nH]c2c(sc(=O)n2-c2ccccc2C)c1=O observation_type=TGI experimental_value="> 100 µM"
compound=O=c1[nH]c2ccccc2c(O)c1/C=N/C(=S)NC1CCCCC1 observation_type=TGI experimental_value="> 100 µM"
compound=COc1ccc(-n2c(N)c(C#N)c(C#N)c2-c2ccco2)cc1 observation_type=TGI experimental_value="> 100 µM"
compound=CN1CCN=C1c1nnn(-c2ccc([N+](=O)[O-])cc2)c1-c1ccccc1 observation_type=TGI experimental_value="> 100 µM"
compound=COc1ccc2c(c1O)[C@@]13CCCC=C1[C@@H](C2)[N+](C)(C)CC3 observation_type=TGI experimental_value="> 100 µM"

* * *

TGI listing for selected molecules.
System: LOX IMVI melanoma
Test: NCI tumour cell line growth inhibition, 48 h
OBSERVATION_TYPE: TGI (µM)

molecule="COC(=O)C1C(=O)CC(C)(O)C(C(=O)OC)C1c1ccc(N(C)C)cc1 (centres undefined)" endpoint_unit=µM relational_operator== experimental_value=24.4
molecule=O=c1[nH]nc(-c2ccccc2)c2[nH]c3c(c12)Cc1ccccc1-3 endpoint_unit=µM relational_operator=> experimental_value=100
molecule=c1ccc2c[n+](CCCC[n+]3ccc4ccccc4c3)ccc2c1 endpoint_unit=µM relational_operator=> experimental_value=100
molecule=CCN(CC)CCCNCc1cc(-c2ccccc2)nc2cc(Cl)ccc12 endpoint_unit=µM relational_operator== experimental_value=4.27
molecule=Cc1nc2ccc(Cl)cc2c2c1CCO2 endpoint_unit=µM relational_operator=> experimental_value=100
molecule=COc1cc(OC)c2c(=O)cc(-c3ccccc3OCc3ccccc3)oc2c1OC endpoint_unit=µM relational_operator=> experimental_value=100
molecule="CC(C)C1(NC(=O)C2CC3c4cccc5[nH]cc(c45)CC3N(C)C2)OC2(O)C3CCCN3C(=O)C(Cc3ccccc3)N2C1=O (centres undefined)" endpoint_unit=µM relational_operator== experimental_value=47.7
molecule=Cc1cc(S(=O)(=O)Nc2nc3cscc3c(=O)n2N)c(S)cc1Cl endpoint_unit=µM relational_operator=> experimental_value=100
molecule=O=C1C(Cl)=C(Cl)C(=O)N1c1ccc(Cl)c(Cl)c1Cl endpoint_unit=µM relational_operator=> experimental_value=100
molecule="Cc1ccc(N2C(=O)C3CSCN3C2=O)cc1 (centres undefined)" endpoint_unit=µM relational_operator=> experimental_value=100
molecule=c1ccc2c(Nc3ncco3)cccc2c1 endpoint_unit=µM relational_operator=> experimental_value=10
molecule="C=CCC12CC(=O)CCC1c1ccc(OC)cc1C2=O (centres undefined)" endpoint_unit=µM relational_operator=> experimental_value=100
molecule=C/C(=N\Nc1nc2ccccc2[nH]1)c1ncccn1 endpoint_unit=µM relational_operator=> experimental_value=100
molecule="Cc1cc(Cl)cc2c1NC(=O)C2(O)CC(=O)c1ccc(Br)cc1 (centres undefined)" endpoint_unit=µM relational_operator=> experimental_value=100
molecule="CCOC(=O)[C@@]12C(C)=CC(=O)O[C@]1(C)C1C(=O)NC(=O)C12 (some centres undefined)" endpoint_unit=µM relational_operator=> experimental_value=100
molecule="CC(=O)OCC1OC(n2c(=O)[nH]c(=O)c3n[nH]nc32)C(OC(C)=O)C(OC(C)=O)C1OC(C)=O (centres undefined)" endpoint_unit=µM relational_operator=> experimental_value=100
molecule=O=C1NC(=O)C(c2cccc(Cl)c2)=C1Nc1ccc(Cl)c(C(=O)O)c1 endpoint_unit=µM relational_operator=> experimental_value=25
molecule=CC1=C(CO)C(=O)O[C@@H]([C@@H](C)[C@H]2CC[C@H]3[C@@H]4C[C@H]5O[C@]56[C@@H](O)C=CC(=O)[C@]6(C)[C@H]4CC[C@]23C)C1 endpoint_unit=µM relational_operator== experimental_value=0.547
molecule=O=C(c1ccccc1)c1nnn(Cc2ccccc2Cn2nnc(C(=O)c3ccccc3)c2C(=O)c2ccccc2)c1C(=O)c1ccccc1 endpoint_unit=µM relational_operator=> experimental_value=100
molecule=CCCCCCC(=O)C/C(CCC(=O)N(Cc1ccccc1)Cc1ccccc1)=N\NC(N)=O endpoint_unit=µM relational_operator=> experimental_value=100
molecule="CC1CCCC(C#N)(NOC2=NCCN2)C1 (centres undefined)" endpoint_unit=µM relational_operator== experimental_value=25.4
molecule=O=C(O)COc1ccc(OCC(=O)O)cc1 endpoint_unit=µM relational_operator== experimental_value=2.34
molecule="C=C(C(=O)OC)[C@@H]1CC2OC1C(=O)C(C)CCC/C(C)=C/CC[C@@]2(C)O (some centres undefined)" endpoint_unit=µM relational_operator== experimental_value=57.2
molecule=[N-]=[N+]=Nc1nc2ccccc2c(N=[N+]=[N-])c1Cl endpoint_unit=µM relational_operator=> experimental_value=100
molecule=CCC[CH2][Sn]([CH2]CCC)([CH2]CCC)/[C](=C/[Si](C)(C)c1ccccc1)c1ccc2c(c1)OCO2 endpoint_unit=µM relational_operator== experimental_value=66.7
molecule=O=c1[nH]n(CCc2ccccc2CCl)c2ccc([N+](=O)[O-])cc12 endpoint_unit=µM relational_operator=> experimental_value=100
molecule=O=C1NC(=O)C(=Cc2cn(Cc3ccccc3)c3ccccc23)C(=O)N1 endpoint_unit=µM relational_operator== experimental_value=33.1
molecule="O=S(=O)(/N=S(/Nc1ccccc1)C(F)(F)Cl)c1ccccc1 (centres undefined)" endpoint_unit=µM relational_operator=> experimental_value=100
molecule=CN1CCN(C(=O)c2ccc(NC(=O)Nc3ccc(-c4nc(N5CCOCC5)c5cccn5n4)cc3)cc2)CC1 endpoint_unit=µM relational_operator== experimental_value=1.74
molecule=COc1cc(C)cc(C(=O)/C=C/c2ccccc2)c1O endpoint_unit=µM relational_operator== experimental_value=34.8
molecule=CC(C)C[C@H](NC(=O)Cn1cccc(CNC(=O)c2ccccc2)c1=O)B(O)O endpoint_unit=µM relational_operator== experimental_value=0.811
molecule=O=c1cc(N2CCOCC2)n2c(ccc3ccccc32)n1 endpoint_unit=µM relational_operator=> experimental_value=100
molecule=Cc1ccc(S(=O)(=O)n2cc([C@@]3(O)C[C@H](CSC#N)OC3=O)c3ccccc32)cc1 endpoint_unit=µM relational_operator== experimental_value=66.4
molecule="CC(C)OP(=O)(OC(C)C)C(C(C)C)N(C)C(N)=NC#N (centres undefined)" endpoint_unit=µM relational_operator=> experimental_value=100
molecule=O=C1N2CCC[C@H]2CS1(=O)=O endpoint_unit=µM relational_operator== experimental_value=27.3
molecule="CC(c1ccccc1)n1cncc1C(=O)NN1CCN(C)CC1 (centres undefined)" endpoint_unit=µM relational_operator=> experimental_value=10
molecule=O=C(Nc1ccc(-n2cc(-c3ccncc3)c(-c3ccc(O)c(Cl)c3)n2)cc1)c1ccc(Cl)c(C(F)(F)F)c1 endpoint_unit=µM relational_operator== experimental_value=6.88
molecule=N#C/C(=C/N1CCN(C(=O)c2ccco2)C1=S)C(=O)Nc1ccc(Cl)cc1 endpoint_unit=µM relational_operator=> experimental_value=50
molecule=CN(C)CCN1C(=O)c2cccc3c(/C=C/CN4C(=O)c5cccc6cccc(c56)C4=O)ccc(c23)C1=O endpoint_unit=µM relational_operator== experimental_value=27.7
molecule="Nc1nc(Cl)nc2c1ncn2C1OC(CO)C(O)C1F (centres undefined)" endpoint_unit=µM relational_operator=> experimental_value=100
molecule=COc1ccc(/C=C2\CCCc3ccccc3C2=O)cc1 endpoint_unit=µM relational_operator== experimental_value=17.4
molecule="N#CC1=C(N)NC(N2CCOCC2)=NC12Nc1ccccc1O2 (centres undefined)" endpoint_unit=µM relational_operator== experimental_value=81
molecule="COc1cccc2c1OC1c3ccccc3OCC1(O)C2 (centres undefined)" endpoint_unit=µM relational_operator=> experimental_value=100
molecule=CC(=O)c1c[nH]c2ccc(-c3ccnc(Nc4ccc(NC(=O)C5CCCC5)c(CN5CCOCC5)c4)n3)cc12 endpoint_unit=µM relational_operator== experimental_value=0.0479
